Test: qHTS assay to identify small molecule agonists of H2AX - cell viability counter screen (AID 1224847);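 also: wild-type CHO-K1 cells; top concentration of the series differs between compounds; % is scaled to controls: 0 for no effect and ±100 for the full control effect; nearly all actives have a fitted effect of over 30% in size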
Settings: CHO-K1 viability, CellTiter-Glo luminescence, 3 h; series mostly up to 154 µM
Inconclusive results are not listed. Activity calls are given as the source filed them. Calls follow the shape of the full dose curve.
ASSAY_READOUT: outcome

CN(C)c1ccccc1	inactive
N#CC(c1ccccc1)c1ccccc1	inactive
CCCCC(C#N)(Cn1cncn1)c1ccc(Cl)cc1 (stereo unspecified)	inactive
Oc1ccc(Cl)cc1Cl	inactive
CC(C)(O)C#N	inactive
Clc1ccc(C(Cl)(Cl)Cl)cc1	inactive

----------
Biological target: Progesterone receptor (Homo sapiens) (UniProt P06401)
Sequence (P06401 whole entry, looked up): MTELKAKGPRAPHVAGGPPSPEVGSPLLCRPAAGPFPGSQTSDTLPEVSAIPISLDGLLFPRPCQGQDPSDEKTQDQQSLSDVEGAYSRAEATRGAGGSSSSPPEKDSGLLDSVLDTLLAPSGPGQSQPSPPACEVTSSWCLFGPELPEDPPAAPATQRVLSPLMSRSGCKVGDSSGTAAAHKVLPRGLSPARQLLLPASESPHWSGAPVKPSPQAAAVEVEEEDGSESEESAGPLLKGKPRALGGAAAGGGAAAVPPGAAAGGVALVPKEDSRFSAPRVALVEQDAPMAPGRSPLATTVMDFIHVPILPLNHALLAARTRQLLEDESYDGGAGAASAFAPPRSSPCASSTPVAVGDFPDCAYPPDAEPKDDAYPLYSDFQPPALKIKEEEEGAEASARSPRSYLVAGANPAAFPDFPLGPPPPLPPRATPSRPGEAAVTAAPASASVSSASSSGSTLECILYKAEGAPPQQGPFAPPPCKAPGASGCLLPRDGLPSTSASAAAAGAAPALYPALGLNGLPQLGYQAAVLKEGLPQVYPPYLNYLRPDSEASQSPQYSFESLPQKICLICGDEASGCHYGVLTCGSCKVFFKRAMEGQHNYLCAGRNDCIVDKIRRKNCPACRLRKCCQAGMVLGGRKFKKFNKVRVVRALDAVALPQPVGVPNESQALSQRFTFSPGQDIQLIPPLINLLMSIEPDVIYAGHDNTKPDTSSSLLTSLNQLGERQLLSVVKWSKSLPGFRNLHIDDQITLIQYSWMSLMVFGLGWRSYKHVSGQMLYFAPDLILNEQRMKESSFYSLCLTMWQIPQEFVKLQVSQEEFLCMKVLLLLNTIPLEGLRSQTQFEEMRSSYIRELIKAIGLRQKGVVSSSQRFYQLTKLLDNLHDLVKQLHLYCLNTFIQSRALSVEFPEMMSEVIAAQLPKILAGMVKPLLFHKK
Assay: qHTS assay to identify small molecule antagonists of the progesterone receptor (PR) signaling pathway (AID 1346795)
Settings: PR-UAS-bla HEK293T, beta-lactamase FRET ratio, 16 h; series mostly up to 92.4 µM
Results filed as inconclusive are left out. Active and inactive are the calls of the source. Calls follow the shape of the dose curve; as a rule, active = well fitted inhibition curve with a large enough effect in the signal ratio in the repeat runs (not every such curve was filed as active); inconclusive = weak or mixed curves; inactive = flat fitted curve, though single readings scatter; the % refers to the signal ratio.
Outcomes: 1 (yes) for active, 0 (no) for inactive

[Cl-].[Cl-].[Cl-].[Fe+3]	0 (no)
CCCCC(C#N)(Cn1cncn1)c1ccc(Cl)cc1 (stereo not drawn)	1 (yes)
Cn1c(-c2ccccc2)cc(-c2ccccc2)[n+]1C	0 (no)
CCCCCCCCCCCCCl	0 (no)
N#Cc1cccnc1	0 (no)
C[C@]12CC[C@H]3[C@@H](CCC4=CC(=O)CC[C@@H]43)[C@@H]1CC[C@@H]2O	0 (no)
O=C1CCCO1	0 (no)
O=C1Nc2ccc(Cl)cc2C(c2ccccc2)=NC1O (stereo not drawn)	0 (no)
CC(C)CON=O	0 (no)
COP(=O)(NC(C)=O)SC (stereo not drawn)	0 (no)
CC(C)(O)C#N	0 (no)
COC(=O)Nc1nc2ccccc2[nH]1	0 (no)
CCC/C=N/O	0 (no)
CC1CC(=O)O1 (stereo not drawn)	0 (no)
CC[n+]1c(-c2ccccc2)c2cc(N)ccc2c2ccc(N)cc21	1 (yes)
CCCCOCC1CO1 (stereo not drawn)	0 (no)
C[N+](C)(C)CC(=O)O	0 (no)
CC(C)Nc1nc(Cl)nc(NC(C)C)n1	0 (no)
